Tested on: SK-OV-3
experiment.notes: NCI tumour cell line growth inhibition, 48 h
Activity calls are given as the source filed them. Cut-off read from the data, not from the text of the source: active = GI50 up to about 1.1 µM and inactive = higher. Where a SMILES comes first, the peptide text is derived from it. The star is where a group is joined. Cbz = O=C(OCc1ccccc1)*; Boc = CC(C)(C)OC(=O)*; tBu = CC(C)(C)*
Exercise: for every item that follows, state its recorded GI50.

Q: Sample c1ccc(CNC2CC(NCc3ccccn3)CC(NCc3ccccn3)C2)nc1 (centres undefined) — what was its GI50?
A: 4.46 µM (inactive)

Q: And then CC(OC(C)(C)C)C(NC(=O)C(CCCCNC(=O)OC(C)(C)C)NC(=O)C(Cc1c[nH]c2ccccc12)NC(=O)C(Cc1ccccc1)NC(=O)OCc1ccccc1)C(=O)NC(Cc1ccccc1)C(=O)O (centres undefined) (Cbz-FWK(Boc)T(tBu)F-OH; configuration not given here) , what is it?
A: 39.5 µM (inactive)

Q: And then CC(C)(N)C(=O)N[C@@H]1C(=O)N2[C@@H]1SC(C)(C)[C@@H]2C(=O)O , what is it?
A: > 100 µM (inactive)

Q: And then CCOC(=O)c1nnsc1NC(=O)NN , what is it?
A: > 100 µM (inactive)

Q: And then C=Cc1nc2c(Cl)ncnc2n1Cc1ccccc1 , what is it?
A: 15.3 µM (inactive)

Q: And then Cc1ccc(S(=O)(=O)N/N=C2/CCCOC2)cc1 , what is it?
A: > 100 µM (inactive)

Q: And then C/C(=N\Nc1ccccc1)c1sc(-c2nc(C)c(/C(C)=N/Nc3ccccc3)s2)nc1C , what is it?
A: 58.5 µM (inactive)

Q: And then COc1cc2c(cc1OC)C(Cc1cc(Br)c(OC)c(OC)c1)=[N+](C)CC2 , what is it?
A: > 100 µM (inactive)

Q: And then N#CCCN(CCC#N)c1ccc(/C=C2\N=C(COc3ccc(Cl)cc3Cl)OC2=O)cc1 , what is it?
A: > 100 µM (inactive)

Q: And then C[n+]1c2ccccc2n2c3ccccc3c(NCCCn3ccnc3)c(C#N)c21 , what is it?
A: 3.54 µM (inactive)

Q: And then NS(=O)(=O)c1ccc(NC(=O)c2cccn3c(=O)c4ccccc4nc23)cc1 , what is it?
A: > 100 µM (inactive)

Q: And then CCCCCC/C=C\CCCCCCCCCC1=C(CN2CCN(C)CC2)C(=O)C=C(OC)C1=O , what is it?
A: 13.2 µM (inactive)

Q: And then COc1ccc(NC(C)c2ccncc2)cc1 (centres undefined) , what is it?
A: 18 µM (inactive)

Q: And then O=C(N/C(=C\c1ccc(/C=C(\NC(=O)c2ccccc2)c2nc3c(O)nc(S)nc3[nH]2)cc1)c1nc2c(O)nc(S)nc2[nH]1)c1ccccc1 , what is it?
A: > 100 µM (inactive)

Q: And then N/N=C1\c2ccccc2C2/C(=N\N)c3ccccc3C12 (centres undefined) , what is it?
A: > 100 µM (inactive)

Q: And then Cc1ccc(NC(=O)CCc2nc(N)nc(N)c2-c2ccccc2)cc1C , what is it?
A: > 100 µM (inactive)

Q: And then COC(=O)C1C(O)C(C)C(O)OC1C(C)C(O)C(C)/C=C\C=C(/C)C(=O)Nc1c(C)c(OC(C)=O)c2c(c1O)C(=O)C(C)=C1OCOC(/C(C)=C/C(C)=O)=C12 (centres undefined) , what is it?
A: 20 µM (inactive)

Q: And then Cc1nc(N2N=C(c3ccc(Cl)cc3)CCC2=O)sc1[N+](=O)[O-] , what is it?
A: > 100 µM (inactive)

Q: And then COC(=O)/C=C1/OC(c2ccccc2)=C(C)C1=O , what is it?
A: 10.7 µM (inactive)
